- assay.target: T1, Human recombinant AXL-FND1 (GST-FND1), from pET-41b(+) (human, UniProt P30530 225-331)
- T1 construct: Expressed in E. coli, purified on Glutathione Sepharose; analyte in all Biacore measurements; GST put first by the usual layout of pET-41; not shown: GST-tag of vector pET-41b(+) (Novagen)
- T1 sequence (looked up): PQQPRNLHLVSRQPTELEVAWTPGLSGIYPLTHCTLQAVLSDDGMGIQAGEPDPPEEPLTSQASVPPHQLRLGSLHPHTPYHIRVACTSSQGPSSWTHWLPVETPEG
- assay.comment: SPR (Biacore T100): antibody captured on Protein A, GST-FND1 as analyte
Below is a list of entries, each paired with its recorded pKd value.
The quantity pKd is defined as the negative base-10 logarithm of the molar concentration.

>>> experimental_value("H25/L0 (antibody, human IgG1, kappa, V domains shown) VH: QVTLKESGPVLVKPTETLTLTCTVSGFSLSSFGVDWVRQAPGKGLEWMGVIWGGGSTNYNSALQDRLTISKDNSKSQVVLTMTNMDPVDTATYYCAGEGSKYGAWFAYWGQGTLVTVSS VL: DVVMTQSPLSLPVTLGQPASISCRSSQNIVHTNGNTYLEWYQQKPGKAPELLIYKVSNRFSGVPDRFSGSGSGTDFTLKISRVEAEDVGVYYCFQGSHIPFTFGQGTKLEIKR")
8.60
>>> experimental_value("H41/L0 (antibody, human IgG1, kappa, V domains shown) VH: QVTLKESGPVLVKPTETLTLTCTVSGFSLSRFGVDWVRQARGQRLEWMGVIWGGGSTNYNSALKSRLTISKDNSKSQVVLTMTNMDPVDTATYYCAGEGSKYGAWFAYWGQGTLVTVSS VL: DVVMTQSPLSLPVTLGQPASISCRSSQNIVHTNGNTYLEWYQQKPGKAPELLIYKVSNRFSGVPDRFSGSGSGTDFTLKISRVEAEDVGVYYCFQGSHIPFTFGQGTKLEIKR")
8.63
>>> experimental_value("H23/L0 (antibody, human IgG1, kappa, V domains shown) VH: QVTLKESGPVLVKPTETLTLTCTVSGFSLSSFGVDWVRQAPGKGLEWMGVIWGGGSTNYNSALQSRLTISKDNSKSQVVLTMTNMDPVDTATYYCAGEGSKYGAWFAYWGQGTLVTVSS VL: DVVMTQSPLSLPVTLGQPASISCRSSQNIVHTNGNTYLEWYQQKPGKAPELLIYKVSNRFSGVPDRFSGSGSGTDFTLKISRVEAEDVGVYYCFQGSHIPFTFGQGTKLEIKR")
8.62
>>> experimental_value("H9/L3 (antibody, human IgG1, kappa, V domains shown) VH: QVTLKESGPVLVKPTETLTLTCTVSGFSLSSFGVDWVRQAPGKGLEWMGVIWGGGSTNYNSALKSRLTISKDNSKSQVVLTMTNMDPVDTATYYCAGEGSKYGAWFAYWGQGTLVTVSS VL: DVVMTQSPLSLPVTLGQPASISCQSSENIVHTNGNTYLEWYQQKPGKAPELLIYKVSNRFSGVPDRFSGSGSGTDFTLKISRVEAEDVGVYYCFQGSHIPFTFGQGTKLEIKR")
8.53
>>> experimental_value("H28/L0 (antibody, human IgG1, kappa, V domains shown) VH: QVTLKESGPVLVKPTETLTLTCTVSGFSLSSFGVDWVRQAPGKGLEWMGVIWGGGSTNYNEELQDRLTISKDNSKSQVVLTMTNMDPVDTATYYCAGEGSKYGAWFAYWGQGTLVTVSS VL: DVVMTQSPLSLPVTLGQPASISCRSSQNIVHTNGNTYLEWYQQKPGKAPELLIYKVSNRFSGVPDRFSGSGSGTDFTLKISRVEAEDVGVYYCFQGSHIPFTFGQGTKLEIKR")
8.53

Per the record, H40/L0 (antibody, human IgG1, kappa, V domains shown) VH: QVTLKESGPVLVKPTETLTLTCTVSGFSLSKFGVDWVRQARGQRLEWMGVIWGGGSTNYNSALKSRLTISKDNSKSQVVLTMTNMDPVDTATYYCAGEGSKYGAWFAYWGQGTLVTVSS VL: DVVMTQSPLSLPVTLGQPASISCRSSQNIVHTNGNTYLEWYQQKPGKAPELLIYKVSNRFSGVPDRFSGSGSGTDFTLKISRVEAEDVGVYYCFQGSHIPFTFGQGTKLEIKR has pKd of 8.45
